System: 565726-208-R1-J5-PDC complex spheroids, growth inhibition;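 note: spheroids exposed to compounds for seven days before readout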
Assay: Anticancer human tumor 565726-208-R1-J5-PDC patient-derived pancreatic adenocarcinoma cell line growth inhibition [RAS]
Settings: curve of first compound; second compound 0.000949 µM
pIC50: −log10 of the molar value.
ENDPOINT: pIC50

Solved entries:
compound="CC(Nc1ccc2c(c1)OCCn1cc(N3C(=O)OCC3C(F)F)nc1-2)C(N)=O (stereo not given) + CCn1c(-c2cccnc2C(C)OC)c2c3cc(ccc31)N1CCOC(CC(NC(=O)C(C(C)C)N(C)C(=O)C3(F)CCN(C(=O)C#CC(C)(C)N(C)C)CC3)C(=O)N3CCCC(N3)C(=O)OCC(C)(C)C2)C1" assay_target="565726-208-R1-J5-PDC complex spheroids, growth inhibition" endpoint=pIC50 result="< 5.00"
compound="C=CC(=O)N1CCN(c2nc(OCC3CCCN3C)nc3c(F)c(-c4nc(N)cc(C)c4C(F)(F)F)c(Cl)cc23)C(C)C1 (stereo not given) + CCn1c(-c2cccnc2C(C)OC)c2c3cc(ccc31)N1CCOC(CC(NC(=O)C(C(C)C)N(C)C(=O)C3(F)CCN(C(=O)C#CC(C)(C)N(C)C)CC3)C(=O)N3CCCC(N3)C(=O)OCC(C)(C)C2)C1" assay_target="565726-208-R1-J5-PDC complex spheroids, growth inhibition" endpoint=pIC50 result="< 6.00"
compound="CC(=O)OC12COC1CC(O)C1(C)C(=O)C(O)C3=C(C)C(OC(=O)C(O)C(NC(=O)OC(C)(C)C)c4ccccc4)CC(O)(C(OC(=O)c4ccccc4)C21)C3(C)C (stereo not given) + CCn1c(-c2cccnc2C(C)OC)c2c3cc(ccc31)N1CCOC(CC(NC(=O)C(C(C)C)N(C)C(=O)C3(F)CCN(C(=O)C#CC(C)(C)N(C)C)CC3)C(=O)N3CCCC(N3)C(=O)OCC(C)(C)C2)C1" assay_target="565726-208-R1-J5-PDC complex spheroids, growth inhibition" endpoint=pIC50 result="> 7.50"
compound="CC(=O)OC12COC1CC(O)C1(C)C(=O)C(O)C3=C(C)C(OC(=O)C(O)C(NC(=O)OC(C)(C)C)c4ccccc4)CC(O)(C(OC(=O)c4ccccc4)C21)C3(C)C (stereo not given) + CCn1c(-c2cc(N3CCN(C)CC3)cnc2C(C)OC)c2c3cc(ccc31)-c1csc(n1)CC(NC(=O)C1CC1C)C(=O)N1CCCC(N1)C(=O)OCC(C)(C)C2" assay_target="565726-208-R1-J5-PDC complex spheroids, growth inhibition" endpoint=pIC50 result="> 7.50"
compound="CCN1CCN(Cc2ccc(Nc3ncc(F)c(-c4cc(F)c5nc(C)n(C(C)C)c5c4)n3)nc2)CC1 + CCn1c(-c2cccnc2C(C)OC)c2c3cc(ccc31)N1CCOC(CC(NC(=O)C(C(C)C)N(C)C(=O)C3(F)CCN(C(=O)C#CC(C)(C)N(C)C)CC3)C(=O)N3CCCC(N3)C(=O)OCC(C)(C)C2)C1" assay_target="565726-208-R1-J5-PDC complex spheroids, growth inhibition" endpoint=pIC50 result="< 6.00"
compound="C[C@@H](NC(=O)c1ncnc(N)c1Cl)c1ncc(C(=O)Nc2cc(C(F)(F)F)c(Cl)cn2)s1 + CCn1c(-c2cccnc2C(C)OC)c2c3cc(ccc31)N1CCOC(CC(NC(=O)C(C(C)C)N(C)C(=O)C3(F)CCN(C(=O)C#CC(C)(C)N(C)C)CC3)C(=O)N3CCCC(N3)C(=O)OCC(C)(C)C2)C1" assay_target="565726-208-R1-J5-PDC complex spheroids, growth inhibition" endpoint=pIC50 result="< 5.00"
compound="NC1c2ccccc2OC12CCN(c1cnc3c(N4CCCc5ncccc54)n[nH]c3n1)CC2 (stereo not given) + CCn1c(-c2cc(N3CCN(C)CC3)cnc2C(C)OC)c2c3cc(ccc31)-c1csc(n1)CC(NC(=O)C1CC1C)C(=O)N1CCCC(N1)C(=O)OCC(C)(C)C2" assay_target="565726-208-R1-J5-PDC complex spheroids, growth inhibition" endpoint=pIC50 result=7.35
compound="CC(C)NCC(C(=O)N1CCN(c2ncnc3c2C(C)CC3O)CC1)c1ccc(Cl)cc1 (stereo not given) + CCn1c(-c2cccnc2C(C)OC)c2c3cc(ccc31)N1CCOC(CC(NC(=O)C(C(C)C)N(C)C(=O)C3(F)CCN(C(=O)C#CC(C)(C)N(C)C)CC3)C(=O)N3CCCC(N3)C(=O)OCC(C)(C)C2)C1" assay_target="565726-208-R1-J5-PDC complex spheroids, growth inhibition" endpoint=pIC50 result="< 5.00"

Data request: Entry CC1(C)CCC(Nc2ncc(C(F)(F)F)c(-c3c[nH]c4c(P(C)(C)=O)c(C#N)ccc34)n2)CN1 (stereo not given) + CCn1c(-c2cccnc2C(C)OC)c2c3cc(ccc31)N1CCOC(CC(NC(=O)C(C(C)C)N(C)C(=O)C3(F)CCN(C(=O)C#CC(C)(C)N(C)C)CC3)C(=O)N3CCCC(N3)C(=O)OCC(C)(C)C2)C1 : reported pIC50 = ?
Data returned: 8.41

Data request: Entry CCc1c2c(nc3ccc(O)cc13)-c1cc3c(c(=O)n1C2)COC(=O)[C@]3(O)CC + CCn1c(-c2cc(N3CCN(C)CC3)cnc2C(C)OC)c2c3cc(ccc31)-c1csc(n1)CC(NC(=O)C1CC1C)C(=O)N1CCCC(N1)C(=O)OCC(C)(C)C2 : reported pIC50 = ?
Data returned: 8.87

These entries and their values trace back to PubChem BioAssay AID2060899.
